Every entry's value here was drawn from patent US20260250320A1.

Overview of reported PBMC pSTAT3 IC50 across a group of binders:
# target or system: T1, interleukin-23 receptor (IL-23R) (UniProt Q5VWK5 24-629, limits assumed)
# T1 sequence (looked up): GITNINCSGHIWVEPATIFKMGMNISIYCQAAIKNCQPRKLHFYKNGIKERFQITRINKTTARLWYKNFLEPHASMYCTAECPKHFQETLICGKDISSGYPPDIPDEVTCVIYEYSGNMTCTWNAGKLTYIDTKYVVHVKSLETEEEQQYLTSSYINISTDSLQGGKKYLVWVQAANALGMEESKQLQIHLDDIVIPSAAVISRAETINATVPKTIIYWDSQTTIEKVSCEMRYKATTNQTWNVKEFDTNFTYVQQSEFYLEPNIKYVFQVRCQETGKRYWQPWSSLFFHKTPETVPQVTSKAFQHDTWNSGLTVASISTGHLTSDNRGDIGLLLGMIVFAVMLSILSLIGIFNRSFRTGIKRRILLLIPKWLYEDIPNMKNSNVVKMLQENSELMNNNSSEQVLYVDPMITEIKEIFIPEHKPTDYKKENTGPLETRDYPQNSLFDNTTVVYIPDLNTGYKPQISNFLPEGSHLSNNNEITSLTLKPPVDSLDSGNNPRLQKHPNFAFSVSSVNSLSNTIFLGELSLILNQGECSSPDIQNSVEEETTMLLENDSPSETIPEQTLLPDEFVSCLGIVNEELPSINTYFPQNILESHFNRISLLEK
# procedure text: cell-based or functional assay
Bridges are numbered along the chain shown (N, C = ends). Where no end group is shown, it is not given here. [ ]: non-standard residue; d: D form. The star is where a group is joined. code d = side-chain group of K(d): lysine given as (2R)-2-(4-((5-amino-5-carboxypentyl)amino)-4-oxobutanamido)-3-carboxy-N,N,N-trimethylpropan-1-aminium, C[N+](C)(C)C[C@@H](CC(=O)O)NC(=O)CCC(=O)*; Trp(7-Me) = Cc1cccc2c(C[C@H](N)C(=O)O)c[nH]c12; 2Nal = N[C@@H](Cc1ccc2ccccc2c1)C(=O)O; AEF = NCCOc1ccc(C[C@H](N)C(=O)O)cc1; 3Pal = N[C@@H](Cc1cccnc1)C(=O)O; NMeK = CN[C@@H](CCCCN)C(=O)O; Pen = CC(C)(S)[C@H](N)C(=O)O; Thp = NC1(C(=O)O)CCOCC1

binder	PBMC pSTAT3 IC50
XNTXXXXXXENXX (HOC18gEPEG2PEG2CO-Pen(3)-N-T-7MeW-K(Ac)-Pen(3)-AEF-2Nal-THP-E-N-3Pya-Sar-CONH2) [SEQ ID NO: 61]	< 0.5 nM
[dR][Pen]NT[Trp(7-Me)]K(Ac)[Pen][AEF][2Nal][Thp]EN[3Pal][NMeK](code d)-NH2 (disulfide 2-7 (inferred); not fully specified (N-terminus); printed as HOC18gEPEG2PEG2CO-r-Pen(3)-N-T-7MeW-K(Ac)-Pen(3)-AEF-2Nal-THP-E-N-3Pya-NMeK(d)-CONH2) [SEQ ID NO: 43]	< 0.5 nM

// switching to the query binder
Request: I have this binder here, Ac-[dR][Pen]NT[Trp(7-Me)]K(Ac)[Pen]X[2Nal][Thp]EN[3Pal][NMeK]-NH2 (disulfide 2-7 (inferred); not fully specified (residues 8, 14); printed as MeCO-r-Pen(3)-N-T-7MeW-K(Ac)-Pen(3)-AEF(d)-2Nal-THP-E-N-3Pya-NMeK(PEG2PEG2gEC18OH)-CONH2) [SEQ ID NO: 16] , and I need its recorded PBMC pSTAT3 IC50.
Response: < 0.5 nM
